Molecular target: oxytocin receptors (Rattus norvegicus, UniProt P70536)
Sequence (P70536 whole entry): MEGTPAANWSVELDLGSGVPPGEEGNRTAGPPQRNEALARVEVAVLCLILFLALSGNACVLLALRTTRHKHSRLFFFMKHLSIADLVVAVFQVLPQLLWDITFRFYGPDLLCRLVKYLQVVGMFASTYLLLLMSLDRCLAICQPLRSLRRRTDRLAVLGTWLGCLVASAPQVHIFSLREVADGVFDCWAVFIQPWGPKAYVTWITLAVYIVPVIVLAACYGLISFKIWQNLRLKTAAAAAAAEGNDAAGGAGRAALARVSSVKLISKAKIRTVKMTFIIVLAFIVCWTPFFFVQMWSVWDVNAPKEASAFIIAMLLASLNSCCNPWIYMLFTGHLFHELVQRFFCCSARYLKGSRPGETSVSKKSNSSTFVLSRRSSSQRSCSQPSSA
Experiment: Oxytocin Receptor Binding
Details: rat uterine membranes, [3H]oxytocin
Readings of IC50 for the listed molecules

# record_smiles, system, result_unit, IC50
rows = [
    ("Cc1ccccc1Nc1ccc(C(=O)N2Cc3cccn3Cc3ccccc32)cn1", "oxytocin receptors (Rattus norvegicus, UniProt P70536)", "nM", 860),
    ("Cc1ccc(F)cc1C(=O)Nc1ccc(C(=O)N2Cc3cccn3-c3ccccc32)cn1", "oxytocin receptors (Rattus norvegicus, UniProt P70536)", "nM", 1100),
    ("Cc1ccc(F)cc1C(=O)Nc1ccc(C(=O)N2Cc3ccnn3Cc3ccccc32)cn1", "oxytocin receptors (Rattus norvegicus, UniProt P70536)", "nM", 730),
    ("CC(C)(C)Nc1ccc(C(=O)N2Cc3cccn3Cc3ccccc32)cn1", "oxytocin receptors (Rattus norvegicus, UniProt P70536)", "nM", 710),
]

Data credit: patent US5753648A
